Reference source for all entries: PubChem BioAssay (NCATS)

Recorded caspase-3 activation for the following compounds
# protocol: Cellular Toxicity (caspase-3) Mesangial (AID 660);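 note: combined caspase 3 and 7 activity read by Caspase-Glo luminescence; cells exposed to compound for 16 h before the caspase read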
# measurement.context: mesangial cells, normalized: DMSO 0%, 100 µM tamoxifen 100%; at 91.7 µM (top of the series)
Express it in %; write the number only.

Examples with answers:
[O-]/[N+](=N\O)c1ccccc1 | -1.07
CCN(C(=O)N(CC)c1ccccc1)c1ccccc1 | 0.257

Report caspase-3 activation for "CCCCCCC(=O)O" please.
-0.964

Report caspase-3 activation for "CC(=O)Nc1ccc(N)cc1" please.
0.253

Report caspase-3 activation for "Cc1ccc2c(c1[N+](=O)[O-])C(=O)c1ccccc1C2=O" please.
-0.888

Report caspase-3 activation for "O=C(O)c1cc(Cl)cc(Cl)c1" please.
-0.386

Report caspase-3 activation for CCCCC(CC)COC(=O)CCCCC(=O)OCC(CC)CCCC (configuration not stated) please.
0.289

Report caspase-3 activation for "CCNc1ccccc1" please.
-0.0326

Report caspase-3 activation for "Clc1ccc(Cl)c(Cl)c1Cl" please.
-0.853

Report caspase-3 activation for "NC(=O)CCCCC(N)=O" please.
-0.354

Report caspase-3 activation for "c1ccc2c(c1)ccc1ncccc12" please.
-0.196

Report caspase-3 activation for "Cc1ccccc1Br" please.
-0.877

Report caspase-3 activation for "CC(=O)Nc1ccccc1C" please.
2.04

Report caspase-3 activation for "CN(C)c1cccc(O)c1" please.
1.93

Report caspase-3 activation for "C=C(C)C(=O)OCCCCCCCCCC" please.
-0.0364

Report caspase-3 activation for "BrC/C=C/CBr" please.
-0.978
